Where do the numbers come from? From paper PMC5337940.

Record form. Attribute: half-life at 1000 ng/ml. Fill in for each entry.
test: in vitro; assay type: in vitro ADME; settings: Swiss outbred, mouse, plasma

compound: C[C@@H]([C@H](NC(=O)[C@H](Cc1ccc2ccccc2c1)NC(=O)N[C@@H](Cc1c[nH]c2ccccc12)C(=O)O)C(=O)NC[C@H]1C[C@@H](O)[C@H](n2ccc(=O)[nH]c2=O)O1)N(C)C(=O)CN [Compound 36]
half-life at 1000 ng/ml: > 7 h

compound: C[C@@H]([C@H](NC(=O)[C@H](CC1CCCCC1)NC(=O)N[C@@H](Cc1c[nH]c2ccccc12)C(=O)O)C(=O)NC[C@H]1C[C@@H](O)[C@H](n2ccc(=O)[nH]c2=O)O1)N(C)C(=O)CN [Compound 25]
half-life at 1000 ng/ml: > 7 h

// switching to the query compound
[ask] Item C[C@@H]([C@H](NC(=O)[C@H](CC1CCCCC1)NC(=O)N[C@@H](Cc1c[nH]c2ccccc12)C(=O)O)C(=O)NC[C@H]1C[C@@H](O)[C@H](n2ccc(=O)[nH]c2=O)O1)N(C)C(=O)[C@@H](N)Cc1cccc(O)c1 [Compound 37] has what recorded half-life at 1000 ng/ml?
[reply] > 7 h
